Biological target: human PPARγ receptor (Homo sapiens, UniProt P37231)
Construct: corresponding to Ser204-Tyr506 for human PPARγ1 receptor and human PPARγ2; expressed in transfected cells; host or cells: CV-1 cells (pSG5-based expression vector)
Sequence (P37231 204-505 limits assumed): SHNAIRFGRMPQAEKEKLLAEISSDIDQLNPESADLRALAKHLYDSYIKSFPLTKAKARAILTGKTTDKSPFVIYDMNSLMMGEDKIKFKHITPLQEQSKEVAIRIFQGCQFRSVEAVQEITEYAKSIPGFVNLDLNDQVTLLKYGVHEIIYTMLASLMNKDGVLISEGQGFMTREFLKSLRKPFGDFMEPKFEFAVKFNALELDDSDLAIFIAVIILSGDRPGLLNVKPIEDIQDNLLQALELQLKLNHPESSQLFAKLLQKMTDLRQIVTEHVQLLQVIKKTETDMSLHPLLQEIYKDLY
Experiment: Luciferase reporter assay of PPARγ agonist activity (Gal4-PPARγ chimera receptor in CV-1 cells)
Assay type: cell-based
Conditions: CV-1, 10 μM compound, luciferase activity with 1 μM Pioglitazone taken as 100, read-out: PPAR γ agonist activity, relative activity
Structures can show the parent of a compound that is named as a salt.

compound: CCCCCCCCOc1c(COc2ccc(CC(OCC)C(=O)O)cc2)cnc2ccc(OC)cc12 (stereo not shown)
Emax at 10 µM (%): 114

compound: CCOC(Cc1ccc(OCc2cccc3cccnc23)cc1)C(=O)O (stereo not shown)
Emax at 10 µM (%): 127

compound: CCOC(Cc1cccc(OCc2cnc3ccc(OC)cc3c2OC(C)C)c1)C(=O)O (stereo not shown)
Emax at 10 µM (%): 110

compound: CCOC(Cc1ccc(OCc2cnc3c(C(F)(F)F)cccc3c2OC(C)C)cc1)C(=O)O (stereo not shown)
Emax at 10 µM (%): 132

compound: CNC(=O)/C(=C/c1ccc(OCc2cnc3ccc(OC)cc3c2OC(C)C)cc1)C(C)=O [Example 25 (144), hydrochloride]
Emax at 10 µM (%): 6.2

compound: CNC(=O)C(Cc1ccc(OCc2cnc3ccc(OC)cc3c2OC(C)C)cc1)C(C)=O (stereo not shown)
Emax at 10 µM (%): 9.4

compound: CCOC(=O)C(Cc1ccc(OC)c(OCc2cnc3ccc(OC)cc3c2OC(C)C)c1)C(=O)OCC [Example 28 (129), hydrochloride]
Emax at 10 µM (%): 14.7

compound: CCOC(=O)C(Cc1cccc(OCc2cnc3ccc(OC)cc3c2OC(C)C)c1)C(=O)OCC [Example 27 (128), hydrochloride]
Emax at 10 µM (%): 42.5

compound: CCOC(=O)C(Cc1ccc(OCc2cnc3ccc(OC)cc3c2OC(C)C)cc1)OCC (stereo not shown)
Emax at 10 µM (%): 102

compound: CCOC(Cc1ccc(OCc2cnc3ccc(OC)cc3c2OC(C)C)cc1)C(N)=O (stereo not shown)
Emax at 10 µM (%): 108

compound: CCOC(Cc1ccc(OCc2cnc3c(Cl)cccc3c2OC(C)C)cc1)C(=O)O (stereo not shown)
Emax at 10 µM (%): 130

compound: CCOC(Cc1ccc(OCc2cnc3cc(C)cc(C)c3c2OC(C)C)cc1)C(=O)O (stereo not shown)
Emax at 10 µM (%): 11.6

compound: COc1ccc2ncc(COc3ccc(CC(Sc4ccccc4)C(=O)O)cc3)c(OC(C)C)c2c1 (stereo not shown)
Emax at 10 µM (%): 97.9

compound: CCCCNC(=O)C(Cc1ccc(OCc2cnc3ccc(OC)cc3c2OC(C)C)cc1)OCC (stereo not shown)
Emax at 10 µM (%): 14.9

compound: CCOC(Cc1ccc(OCc2cc(OC)c3ccccc3n2)cc1)C(=O)O (stereo not shown)
Emax at 10 µM (%): 106

compound: CCOC(Cc1ccc(OCc2cnc3ccc(CC)cc3c2OC(C)C)cc1)C(=O)O (stereo not shown)
Emax at 10 µM (%): 125
